B1: Steroid hormone receptor ERR2, residues 100 to 176; numbered along this chain, O95718 (parent)
chain: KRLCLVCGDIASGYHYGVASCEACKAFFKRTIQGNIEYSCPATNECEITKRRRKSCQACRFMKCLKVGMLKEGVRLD

# Variants of: B1
# assay-method-text: abundance fitness (aPCA) (normalised: wild type 0, dead -1); higher = more abundant; growth selection in yeast, the domain comes from the species named
# measurement-setup: Homo sapiens
endpoint: abundance fitness
Answers are plain numbers.

Required: abundance fitness, one value per variant below.
1. C21N
2. S55P
3. K50M
4. R60F
5. F61N
6. M62C

[-1, 0.257, 0.098, 0.211, -0.541, -1.07]

Required: abundance fitness, one value per variant below.
1. G34W
2. I32C

1. -0.08
2. -0.803

Required: abundance fitness, one value per variant below.
1. I36F
2. R60A
3. K1S
4. R30I

-0.095
-0.031
-0.295
-0.775

Required: abundance fitness, one value per variant below.
1. A58Q
2. R2L
3. L5G
4. A11F
5. V6N

1. -0.145
2. -0.136
3. -0.341
4. -0.213
5. -0.826
